Cited source for all entries: paper PMC6458995

- experimental_system: PRK2 (Homo sapiens, UniProt Q16513)
- Construct: lines 1-140) and Reaction Biology
- Sequence (Q16513 whole entry): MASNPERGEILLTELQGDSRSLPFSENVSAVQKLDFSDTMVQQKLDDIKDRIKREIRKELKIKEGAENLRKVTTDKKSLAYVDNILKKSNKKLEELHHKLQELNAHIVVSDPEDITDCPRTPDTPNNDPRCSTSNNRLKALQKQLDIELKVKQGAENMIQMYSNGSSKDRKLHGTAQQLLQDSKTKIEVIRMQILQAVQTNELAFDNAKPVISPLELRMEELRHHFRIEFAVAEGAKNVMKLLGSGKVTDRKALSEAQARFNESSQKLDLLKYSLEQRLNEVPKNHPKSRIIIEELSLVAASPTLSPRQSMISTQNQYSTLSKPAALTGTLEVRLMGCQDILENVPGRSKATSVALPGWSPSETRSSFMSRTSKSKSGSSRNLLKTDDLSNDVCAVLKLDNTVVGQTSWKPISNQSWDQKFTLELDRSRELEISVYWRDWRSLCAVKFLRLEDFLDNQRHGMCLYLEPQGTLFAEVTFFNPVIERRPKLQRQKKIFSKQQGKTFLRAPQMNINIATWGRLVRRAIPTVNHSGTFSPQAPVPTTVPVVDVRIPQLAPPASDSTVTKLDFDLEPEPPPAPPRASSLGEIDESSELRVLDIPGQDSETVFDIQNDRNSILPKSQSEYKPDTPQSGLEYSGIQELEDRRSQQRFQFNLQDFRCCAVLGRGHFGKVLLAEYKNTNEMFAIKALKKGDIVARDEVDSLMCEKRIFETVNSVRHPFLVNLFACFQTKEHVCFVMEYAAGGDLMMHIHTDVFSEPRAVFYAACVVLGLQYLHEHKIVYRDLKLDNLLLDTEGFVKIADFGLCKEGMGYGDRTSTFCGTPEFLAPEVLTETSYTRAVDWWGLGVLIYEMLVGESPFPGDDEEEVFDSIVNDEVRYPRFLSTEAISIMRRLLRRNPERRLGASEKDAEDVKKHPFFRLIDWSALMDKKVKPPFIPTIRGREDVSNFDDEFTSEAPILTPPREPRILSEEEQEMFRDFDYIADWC
- method_summary: Dundee kinase panel
- Format: biochemical
- stated_conditions: read-out: residual activity
Item-by-item account of remaining activity at 1 µM
State just the number; it will be interpreted in %.

Solved cases below.
[[record]]
compound = "O=C1Cc2c([nH]c3ccc(Br)cc23)-c2ccccc2N1 [Kenpaullone]"
unit_text = "%"
numeric_value = 57

[[record]]
compound = "O=C1Nc2ccc(I)cc2/C1=C/c1cc(Br)c(O)c(Br)c1 [GW5074]"
unit_text = "%"
numeric_value = 68

[[record]]
compound = "Oc1ncnc2c1c(-c1ccccc1)cn2-c1ccccc1 [F1386-0303]"
unit_text = "%"
numeric_value = 111


Just so you know, measured remaining activity at 1 µM for COCCOc1ccc(-c2cn(-c3ccccc3)c3nc[nH]c(=O)c23)cc1 [DMX-5804] came out at 90

* * *

Below is a list of entries, each paired with its recorded remaining activity at 1 µM value.
- experimental_system: DYRK3 (Homo sapiens, UniProt O43781)
- Construct: lines 1-140) and Reaction Biology
- Sequence (O43781 whole entry): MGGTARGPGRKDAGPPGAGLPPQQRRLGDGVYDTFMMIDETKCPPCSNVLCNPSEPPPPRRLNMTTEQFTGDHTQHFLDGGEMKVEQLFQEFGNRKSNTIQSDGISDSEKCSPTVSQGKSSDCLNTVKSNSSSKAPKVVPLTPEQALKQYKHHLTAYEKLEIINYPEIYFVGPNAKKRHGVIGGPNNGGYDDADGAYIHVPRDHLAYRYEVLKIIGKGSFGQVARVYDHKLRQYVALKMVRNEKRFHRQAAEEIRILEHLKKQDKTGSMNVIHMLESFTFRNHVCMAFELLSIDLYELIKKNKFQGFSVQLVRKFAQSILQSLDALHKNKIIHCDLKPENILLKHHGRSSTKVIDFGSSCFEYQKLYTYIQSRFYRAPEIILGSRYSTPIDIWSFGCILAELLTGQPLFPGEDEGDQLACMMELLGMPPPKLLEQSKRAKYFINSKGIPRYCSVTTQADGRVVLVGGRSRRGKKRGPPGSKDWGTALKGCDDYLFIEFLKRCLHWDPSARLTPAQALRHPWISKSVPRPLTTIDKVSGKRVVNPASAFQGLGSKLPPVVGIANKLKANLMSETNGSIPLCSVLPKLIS
- method_summary: Dundee kinase panel
- Type: biochemical
- stated_conditions: read-out: residual activity
Write the value in % as a bare number.

[[record]]
compound_string = "Oc1ncnc2c1c(-c1ccccc1)cn2-c1ccccc1"
unit_text = "%"
numeric_value = 101

[[record]]
compound_string = "O=C1Cc2c([nH]c3ccc(Br)cc23)-c2ccccc2N1"
unit_text = "%"
numeric_value = 72

[[record]]
compound_string = "COCCOc1ccc(-c2cn(-c3ccccc3)c3nc[nH]c(=O)c23)cc1"
unit_text = "%"
numeric_value = 128


// next entry
`O=C1Nc2ccc(I)cc2/C1=C/c1cc(Br)c(O)c(Br)c1` has a reported remaining activity at 1 µM of 14

* * *

- experimental_system: NUAK1 (Homo sapiens, UniProt O60285)
- Construct: lines 1-140) and Reaction Biology
- Sequence (O60285 1-661): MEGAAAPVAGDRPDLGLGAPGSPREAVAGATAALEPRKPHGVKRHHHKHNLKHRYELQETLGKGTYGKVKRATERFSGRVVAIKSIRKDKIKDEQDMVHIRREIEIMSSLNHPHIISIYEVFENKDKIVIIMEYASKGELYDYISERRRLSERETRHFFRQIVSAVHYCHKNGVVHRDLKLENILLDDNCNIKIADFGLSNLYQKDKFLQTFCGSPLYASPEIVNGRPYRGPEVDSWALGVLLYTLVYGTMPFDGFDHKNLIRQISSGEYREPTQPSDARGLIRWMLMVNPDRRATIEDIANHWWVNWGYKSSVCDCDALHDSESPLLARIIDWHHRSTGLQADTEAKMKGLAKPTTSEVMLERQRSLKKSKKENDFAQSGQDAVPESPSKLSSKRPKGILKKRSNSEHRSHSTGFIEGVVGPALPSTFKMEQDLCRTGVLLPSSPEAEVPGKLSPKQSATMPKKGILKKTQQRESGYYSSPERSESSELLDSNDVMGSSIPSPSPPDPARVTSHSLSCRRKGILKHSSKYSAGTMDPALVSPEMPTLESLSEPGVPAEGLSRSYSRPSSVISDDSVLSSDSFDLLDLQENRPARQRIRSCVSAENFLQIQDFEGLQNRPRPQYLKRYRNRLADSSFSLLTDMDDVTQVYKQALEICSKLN
- method_summary: Dundee kinase panel
- Type: biochemical
- stated_conditions: read-out: residual activity
measurement_type: remaining activity at 1 µM (%)
Unit % implied. Number only.

Sample answers from the record:
[[record]]
compound_string = "O=C1Nc2ccc(I)cc2/C1=C/c1cc(Br)c(O)c(Br)c1"
experimental_system = "NUAK1 (Homo sapiens, UniProt O60285)"
unit_text = "%"
numeric_value = 63

[[record]]
compound_string = "COCCOc1ccc(-c2cn(-c3ccccc3)c3nc[nH]c(=O)c23)cc1"
experimental_system = "NUAK1 (Homo sapiens, UniProt O60285)"
unit_text = "%"
numeric_value = 14

[[record]]
compound_string = "O=C1Cc2c([nH]c3ccc(Br)cc23)-c2ccccc2N1"
experimental_system = "NUAK1 (Homo sapiens, UniProt O60285)"
unit_text = "%"
numeric_value = 79


Recorded remaining activity at 1 µM (compound `Oc1ncnc2c1c(-c1ccccc1)cn2-c1ccccc1` ): 48
